Origin of values: ChEMBL document CHEMBL1140988

Recorded pKi for the following compounds
assay.system: Cannabinoid receptor 2 (Homo sapiens)
test.description: Displacement of [3H]WIN-55212-2 from human CB2 receptor expressed in CHO cells
Type: cell-based
Here pKi is given on a logarithmic scale as minus log10 of the concentration in mol/L.

[
  {
    "line.notation": "O=C(NN1CCCCC1)c1cnn(-c2ccc(Cl)cc2Cl)c1-c1ccc(I)cc1",
    "pKi": 5.72
  }
]

Moving on to another compound below.
Lookup: Which pKi value belongs to O=C(NC1CC1)c1cnn(-c2ccc(Cl)cc2Cl)c1-c1ccc(Cl)cc1 ?
Found: 4.68

---

assay.system: Cannabinoid receptor 2 (Homo sapiens, UniProt P34972)
Sequence (P34972 whole entry): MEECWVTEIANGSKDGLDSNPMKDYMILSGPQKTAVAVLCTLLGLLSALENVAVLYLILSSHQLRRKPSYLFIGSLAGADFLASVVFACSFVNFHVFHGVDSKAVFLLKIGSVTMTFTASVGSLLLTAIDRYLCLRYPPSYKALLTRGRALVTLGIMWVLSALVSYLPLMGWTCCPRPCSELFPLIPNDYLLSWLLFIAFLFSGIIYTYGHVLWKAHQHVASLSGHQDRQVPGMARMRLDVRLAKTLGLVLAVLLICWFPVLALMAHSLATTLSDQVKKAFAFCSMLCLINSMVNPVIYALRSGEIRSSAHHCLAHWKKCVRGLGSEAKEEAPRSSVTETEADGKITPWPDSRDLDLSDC
test.description: Displacement of [3H]WIN-55212-2 from human CB2 receptor expressed in CHO cells at 10 uM
Type: cell-based
Recorded Activity for the following molecules
Use % as the unit, but write only the number.

[
  {
    "molecule": "O=C(NN1CCCCC1)c1cnn(-c2ccc(Cl)cc2Cl)c1-c1ccc(Br)cc1",
    "readout.type": "Activity",
    "measured.value": 55
  }
]

Lookup: Which Activity value belongs to O=C(NC1CCCCCCC1)c1cnn(-c2ccc(Cl)cc2Cl)c1-c1ccc(Cl)cc1 ?
Found: 44

Lookup: Which Activity value belongs to O=C(NN1CCCCC1)c1cnn(-c2ccc(Cl)cc2Cl)c1-c1ccc(F)cc1 ?
Found: 7

Lookup: Which Activity value belongs to O=C(c1cnn(-c2ccc(Cl)cc2Cl)c1-c1ccc(Cl)cc1)N1CCc2ccccc2C1 ?
Found: 69

Lookup: Which Activity value belongs to O=C(NC12CC3CC(CC(C3)C1)C2)c1cnn(-c2ccc(Cl)cc2Cl)c1-c1ccc(Cl)cc1 ?
Found: 22

Lookup: Which Activity value belongs to O=C(NN1CCOCC1)c1cnn(-c2ccc(Cl)cc2Cl)c1-c1ccc(F)cc1 ?
Found: -9

---

assay.system: UniProt P21554
Sequence (P21554 whole entry): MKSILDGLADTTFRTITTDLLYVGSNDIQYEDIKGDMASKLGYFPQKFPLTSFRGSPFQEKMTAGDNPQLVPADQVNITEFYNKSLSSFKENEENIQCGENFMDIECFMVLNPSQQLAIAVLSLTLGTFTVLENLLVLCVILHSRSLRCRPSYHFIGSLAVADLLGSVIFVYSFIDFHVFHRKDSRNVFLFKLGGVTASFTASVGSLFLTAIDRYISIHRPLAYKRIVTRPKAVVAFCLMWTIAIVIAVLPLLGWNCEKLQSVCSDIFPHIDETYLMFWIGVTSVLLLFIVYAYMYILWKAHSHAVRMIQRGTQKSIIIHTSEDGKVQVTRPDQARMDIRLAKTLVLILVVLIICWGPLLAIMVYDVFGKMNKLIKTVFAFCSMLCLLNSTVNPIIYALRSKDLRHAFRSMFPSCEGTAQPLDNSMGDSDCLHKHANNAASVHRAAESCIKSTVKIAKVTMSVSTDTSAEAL
test.description: Displacement of [3H]CP-55940 from human CB1 receptor expressed in CHO cells at 10 uM
Assay type: cell-based
With a cut-off of 70%, any Activity strictly below it is called TRUE; any Activity meeting it or above is called FALSE.

Field: example entries. Status: answers known.
[
  {
    "molecule": "COc1ccc(-c2c(C(=O)NN3CCCCC3)cnn2-c2ccc(Cl)cc2Cl)cc1",
    "assigned.class": "TRUE"
  },
  {
    "molecule": "O=C(NN1CC2CCCC2C1)c1cnn(-c2ccc(Cl)cc2Cl)c1-c1ccc(Cl)cc1 (stereo not given)",
    "assigned.class": "FALSE"
  },
  {
    "molecule": "O=C(NN1CCCCC1)c1cnn(-c2ccc(Cl)cc2Cl)c1-c1ccc(Br)cc1",
    "assigned.class": "FALSE"
  },
  {
    "molecule": "O=C(NC1CCCCC1)c1cnn(-c2ccc(Cl)cc2Cl)c1-c1ccc(I)cc1",
    "assigned.class": "TRUE"
  }
]

Lookup: Find out if reported Activity for O=C(c1cnn(-c2ccc(Cl)cc2Cl)c1-c1ccc(Cl)cc1)N1CCCC1 is less than 70%
Found: TRUE

Lookup: Find out if reported Activity for COc1ccc(-c2c(C(=O)NC3CCCCC3)cnn2-c2ccc(Cl)cc2Cl)cc1 is less than 70%
Found: TRUE

Lookup: Find out if reported Activity for O=C(NC1CCCCCCC1)c1cnn(-c2ccc(Cl)cc2Cl)c1-c1ccc(Cl)cc1 is less than 70%
Found: FALSE

Lookup: Find out if reported Activity for CN1CCN(NC(=O)c2cnn(-c3ccc(Cl)cc3Cl)c2-c2ccc(Br)cc2)CC1 is less than 70%
Found: TRUE

Lookup: Find out if reported Activity for O=C(c1cnn(-c2ccc(Cl)cc2Cl)c1-c1ccc(Cl)cc1)N1CCc2ccccc2C1 is less than 70%
Found: TRUE

Lookup: Find out if reported Activity for O=C(NC1CC1)c1cnn(-c2ccc(Cl)cc2Cl)c1-c1ccc(F)cc1 is less than 70%
Found: TRUE

Lookup: Find out if reported Activity for O=C(NCCN1CCCCC1)c1cnn(-c2ccc(Cl)cc2Cl)c1-c1ccc(Cl)cc1 is less than 70%
Found: TRUE

Lookup: Find out if reported Activity for O=C(c1cnn(-c2ccc(Cl)cc2Cl)c1-c1ccc(Cl)cc1)N1CCCCC1 is less than 70%
Found: TRUE

Lookup: Find out if reported Activity for O=C(NN1CCCCCC1)c1cnn(-c2ccc(Cl)cc2Cl)c1-c1ccc(Cl)cc1 is less than 70%
Found: FALSE

Lookup: Find out if reported Activity for O=C(NC1CCCC1)c1cnn(-c2ccc(Cl)cc2Cl)c1-c1ccc(Cl)cc1 is less than 70%
Found: FALSE

Lookup: Find out if reported Activity for CN1CCN(NC(=O)c2cnn(-c3ccc(Cl)cc3Cl)c2-c2ccc(Cl)cc2)CC1 is less than 70%
Found: TRUE

Lookup: Find out if reported Activity for O=C(NC1CCCCCC1)c1cnn(-c2ccc(Cl)cc2Cl)c1-c1ccc(I)cc1 is less than 70%
Found: FALSE

Lookup: Find out if reported Activity for O=C(NC1CCCCCC1)c1cnn(-c2ccc(Cl)cc2Cl)c1-c1ccc(Br)cc1 is less than 70%
Found: FALSE

Lookup: Find out if reported Activity for O=C(NN1CCOCC1)c1cnn(-c2ccc(Cl)cc2Cl)c1-c1ccc(Cl)cc1 is less than 70%
Found: TRUE

---

assay.system: Cannabinoid receptor 2 (Homo sapiens, UniProt P34972)
test.description: Displacement of [3H]WIN-55212-2 from human CB2 receptor expressed in CHO cells at 10 uM
Type: cell-based
With a cut-off of 50%, any Activity strictly below it is called Met; any Activity meeting it or above is called Not met.

Field: example entries. Status: answers known.
[
  {
    "compound": "O=C(NC1CCCCCC1)c1cnn(-c2ccc(Cl)cc2Cl)c1-c1ccc(Br)cc1",
    "assigned.class": "Not met"
  },
  {
    "compound": "CN1CCN(NC(=O)c2cnn(-c3ccc(Cl)cc3Cl)c2-c2ccc(Br)cc2)CC1",
    "assigned.class": "Met"
  },
  {
    "compound": "O=C(NC1CCCC1)c1cnn(-c2ccc(Cl)cc2Cl)c1-c1ccc(Cl)cc1",
    "assigned.class": "Not met"
  },
  {
    "compound": "O=C(NN1CCOCC1)c1cnn(-c2ccc(Cl)cc2Cl)c1-c1ccc(Cl)cc1",
    "assigned.class": "Met"
  },
  {
    "compound": "O=C(NC1CCCCC1)c1cnn(-c2ccc(Cl)cc2Cl)c1-c1ccc(F)cc1",
    "assigned.class": "Met"
  },
  {
    "compound": "O=C(c1cnn(-c2ccc(Cl)cc2Cl)c1-c1ccc(Cl)cc1)N1CCCCC1",
    "assigned.class": "Met"
  }
]

Lookup: Find out if reported Activity for O=C(NN1CCCCC1)c1cnn(-c2ccc(Cl)cc2Cl)c1-c1ccc(I)cc1 is less than 50%
Found: Not met

Lookup: Find out if reported Activity for O=C(NN1CCCCC1)c1cnn(-c2ccc(Cl)cc2Cl)c1-c1ccc(Cl)cc1 is less than 50%
Found: Met

Lookup: Find out if reported Activity for O=C(c1cnn(-c2ccc(Cl)cc2Cl)c1-c1ccc(Cl)cc1)N1CCCC1 is less than 50%
Found: Met

Lookup: Find out if reported Activity for O=C(NC1CCCCC1)c1cnn(-c2ccc(Cl)cc2Cl)c1-c1ccc(Cl)cc1 is less than 50%
Found: Not met

Lookup: Find out if reported Activity for O=C(NC1CCCCCC1)c1cnn(-c2ccc(Cl)cc2Cl)c1-c1ccc(I)cc1 is less than 50%
Found: Not met

---

Recorded Activity for the following compounds
assay.system: Cannabinoid receptor 2 (Homo sapiens)
test.description: Displacement of [3H]WIN-55212-2 from human CB2 receptor expressed in CHO cells at 10 uM
Assay type: cell-based
Use % as the unit, but write only the number.

[
  {
    "compound": "O=C(NC1CCCCCC1)c1cnn(-c2ccc(Cl)cc2Cl)c1-c1ccc(Cl)cc1",
    "Activity / %": 50
  },
  {
    "compound": "O=C(NC1CCCCC1)c1cnn(-c2ccc(Cl)cc2Cl)c1-c1ccc(I)cc1",
    "Activity / %": 59
  },
  {
    "compound": "CN1CCN(NC(=O)c2cnn(-c3ccc(Cl)cc3Cl)c2-c2ccc(I)cc2)CC1",
    "Activity / %": 42
  },
  {
    "compound": "O=C(NN1CC2CCCC2C1)c1cnn(-c2ccc(Cl)cc2Cl)c1-c1ccc(Cl)cc1 (configuration not stated)",
    "Activity / %": 56
  },
  {
    "compound": "COc1ccc(-c2c(C(=O)NN3CCCCC3)cnn2-c2ccc(Cl)cc2Cl)cc1",
    "Activity / %": 70
  }
]

Moving on to another compound below.
Lookup: Which Activity value belongs to O=C(NC1CC1)c1cnn(-c2ccc(Cl)cc2Cl)c1-c1ccc(I)cc1 ?
Found: 60
